- SYSTEM: Adrenergic receptor alpha-1 (Rattus norvegicus) (UniProt P15823+P23944+P43140)
- TEST_PROTOCOL: Intrinsic activity against alpha-1 receptor in isolated rat vas deferens
- Assay type: tissue-based
ENDPOINT: IA

[A] NCC1OCCc2c1ccc(O)c2O (centres undefined)
[B] NCC1OCCc2cc(O)c(O)cc21 (centres undefined)
Smaller IA value? Options are A and B Answer with the label corresponding to your selection.
B

---

- SYSTEM: Adrenergic receptor alpha-2 (Rattus norvegicus, UniProt P22086+P19328+P22909)
ENDPOINT: Ki (nM)

The cases that follow already have their Ki on record.
>  <COMPOUND>
CC(C)NCC1OCCc2cc(O)c(O)cc21 (centres undefined)

>  <U>
nM

>  <VALUE>
4120

$$$$
>  <COMPOUND>
NCC1OCCc2cc(O)c(O)cc21 (centres undefined)

>  <U>
nM

>  <VALUE>
1280

$$$$

[I] CC(C)NCC1OCCc2c1ccc(O)c2O (centres undefined)
[II] NCC1OCCc2c1ccc(O)c2O (centres undefined)
Which value of Ki is greater, the one for I or the one for II ? Answer with the label corresponding to your selection.
I
